# study.target: AmOctα2R-HA (Apis mellifera, UniProt A0A7M7FZR9)
# Sequence (A0A7M7FZR9 entry or part of it): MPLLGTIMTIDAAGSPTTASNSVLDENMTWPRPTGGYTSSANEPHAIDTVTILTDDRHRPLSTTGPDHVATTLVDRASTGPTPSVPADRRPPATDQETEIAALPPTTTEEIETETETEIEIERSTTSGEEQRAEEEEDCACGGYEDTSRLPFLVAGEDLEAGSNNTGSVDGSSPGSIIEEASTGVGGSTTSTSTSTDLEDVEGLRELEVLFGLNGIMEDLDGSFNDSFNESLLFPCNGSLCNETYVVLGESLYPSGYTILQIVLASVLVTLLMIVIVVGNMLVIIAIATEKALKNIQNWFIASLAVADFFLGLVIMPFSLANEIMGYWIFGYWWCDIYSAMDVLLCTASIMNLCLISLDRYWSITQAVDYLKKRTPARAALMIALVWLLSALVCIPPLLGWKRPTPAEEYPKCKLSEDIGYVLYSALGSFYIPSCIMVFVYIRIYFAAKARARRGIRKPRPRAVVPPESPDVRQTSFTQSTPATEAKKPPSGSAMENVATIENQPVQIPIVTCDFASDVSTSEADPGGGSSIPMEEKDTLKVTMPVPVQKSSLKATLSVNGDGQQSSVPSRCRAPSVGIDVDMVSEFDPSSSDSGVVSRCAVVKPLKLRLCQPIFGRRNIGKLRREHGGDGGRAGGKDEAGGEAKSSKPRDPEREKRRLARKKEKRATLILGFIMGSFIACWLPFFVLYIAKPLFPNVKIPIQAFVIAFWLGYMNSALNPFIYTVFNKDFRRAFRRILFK
# test.details: Antagonist concentration-response on tyramine-activated AmOctα2R-HA in flpTM cells
# Assay type: cell-based
# run.conditions: IC50, block of the action of tyramine; first value of the printed pair
measurement.type: IC50

- COc1ccc2[nH]cc(CCN)c2c1: 20.6 nM

----------
# study.target: AmOctα2R-HA (Apis mellifera)
# test.details: Agonist effects on NKH 477-stimulated cAMP (Fluo-4 Ca2+ fluorescence via co-expressed CNG channel) in AmOctα2R-HA-expressing flpTM cells
# Assay type: cell-based
# run.conditions: mean of all experiments; octopamine n = 7, tyramine n = 11; 10 µM NKH 477, 100 µM IBMX; read-out: EC50 [M], mean value for half-maximal stimulation
The reader will find reported EC50 values listed item by item below.
measurement.type: EC50 (M)

- NCCc1ccc(O)cc1 [tyramine]: 1.85e-06
- NCC(O)c1ccc(O)cc1 (centres unmarked) [octopamine]: 5.87e-08

----------
# study.target: UniProtKB A0A7M7FZR9
# test.details: Antagonist concentration-response on octopamine-activated AmOctα2R-HA in flpTM cells
# Type: cell-based
# run.conditions: IC50, block of the action of octopamine; second value of the pair
measurement.type: IC50

- COc1ccc2[nH]cc(CCN)c2c1: 836 nM

----------
# study.target: AmOctα2R-HA (Apis mellifera)
# test.details: Agonist effects on NKH 477-stimulated cAMP (Fluo-4 Ca2+ fluorescence via co-expressed CNG channel) in AmOctα2R-HA-expressing flpTM cells
# Assay type: cell-based
# run.conditions: biogenic amines 10^−6 M each
measurement.type: effect on NKH 477-stimulated cAMP production (Ca2+-dependent fluorescence signal)

• NCCc1c[nH]c2ccc(O)cc12 [serotonin, 5-hydroxytryptamine] = no effect
• NCCc1ccc(O)c(O)c1 = no effect

----------
# study.target: UniProtKB A0A7M7FZR9
# test.details: Antagonist concentration-response on tyramine-activated AmOctα2R-HA in flpTM cells
# Type: cell-based
# run.conditions: tyramine-activated (10 µM tyramine)
measurement.type: Maximal Inhibition [%] (%)

• COC(=O)[C@@H]1[C@H]2C[C@H]3c4[nH]c5ccccc5c4CCN3C[C@@H]2CC[C@@H]1O [yohimbine] = 14.3
• COc1ccc2[nH]cc(CCN)c2c1 [5-MT, 5-methoxytryptamine] = 20.3
• O=C(c1ccc(F)cc1)C1CCN(CCn2c(=O)[nH]c3ccccc3c2=O)CC1 [ketanserin] = 17.11
• NC1=NCC2c3ccccc3Cc3ccccc3N12 (stereo not shown) [epinastine] = 17.31
• Cc1ccc(N(CC2=NCCN2)c2cccc(O)c2)cc1 [phentolamine] = 16.1
• NCCc1c[nH]c2ccc(C(N)=O)cc12 [5-CT, 5-carboxamidotryptamine] = 10.8
• CCCN(CCC)C1CCc2cccc(O)c2C1 (stereo not shown) [8-OH-DPAT, 8-Hydroxy-2-(dipropylamino)tetralin] = 7.21

----------
# study.target: AmOctα2R-HA (Apis mellifera, UniProt A0A7M7FZR9)
# test.details: Antagonist concentration-response on tyramine-activated AmOctα2R-HA in flpTM cells
# Assay type: cell-based
# run.conditions: tyramine-activated (10 µM tyramine), 10 µM NKH 477, 100 µM IBMX; read-out: IC50 [M], mean value for half-maximal inhibition
Each entry below carries its reported IC50.
measurement.type: IC50 (M)

• NCCc1c[nH]c2ccc(C(N)=O)cc12 [5-CT, 5-carboxamidotryptamine] = 4.16e-09
• Cc1ccc(N(CC2=NCCN2)c2cccc(O)c2)cc1 [phentolamine] = 5.6e-09

----------
# study.target: AmOctα2R-HA (Apis mellifera, UniProt A0A7M7FZR9)
# test.details: Antagonist concentration-response on octopamine-activated AmOctα2R-HA in flpTM cells
# Assay type: cell-based
# run.conditions: log IC50 ± SD, log of IC50 in M; octopamine-activated (3 × 10^−7 M octopamine)
pIC50: −log10 of the molar value.
Items are presented alongside their recorded pIC50.
measurement.type: pIC50

* COc1ccc2[nH]cc(CCN)c2c1 [5-MT, 5-methoxytryptamine] | 6.08
* CCCN(CCC)C1CCc2cccc(O)c2C1 (stereo not drawn) [8-OH-DPAT, 8-Hydroxy-2-(dipropylamino)tetralin] | 6.78
* COC(=O)[C@@H]1[C@H]2C[C@H]3c4[nH]c5ccccc5c4CCN3C[C@@H]2CC[C@@H]1O [yohimbine] | 6.44

----------
# study.target: AmOctα2R-HA (Apis mellifera, UniProt A0A7M7FZR9)
# test.details: Antagonist concentration-response on octopamine-activated AmOctα2R-HA in flpTM cells
# Format: cell-based
# run.conditions: block of the action of octopamine; second value of the pair; read-out: IC50
pIC50: −log10 of the molar value.
Entries and their pIC50 values follow.
measurement.type: pIC50

* Cc1ccc(N(CC2=NCCN2)c2cccc(O)c2)cc1 | 8.09
* NCCc1c[nH]c2ccc(C(N)=O)cc12 | 9.57

----------
# study.target: UniProtKB A0A7M7FZR9
# test.details: Antagonist concentration-response on tyramine-activated AmOctα2R-HA in flpTM cells
# Assay type: cell-based
Some compounds, each annotated with its measured IC50.
measurement.type: IC50 (nM)

- COC(=O)[C@@H]1[C@H]2C[C@H]3c4[nH]c5ccccc5c4CCN3C[C@@H]2CC[C@@H]1O: 75.9
- CCCN(CCC)C1CCc2cccc(O)c2C1 (centres unmarked) [8-OH-DPAT, 8-Hydroxy-2-(dipropylamino)tetralin]: 708
